# System: hsa-mir-21 loop
# PROTOCOL_DESCRIPTION: normalised indicator fluorescence (fraction of RNA + indicator signal without compound); higher = less displacement of indicator (weaker competition)
# TEST_PARAMETERS: compound concentration: 5 uM; 30 min; indicator: TO-PRO-1 0.1 uM; RNA concentration: 0.1 uM
Where a name gives a salt, the structure may show the parent alone.
Catalogue of compounds with associated normalised indicator fluorescence
READOUT_KIND: normalised indicator fluorescence

COMPOUND | ASSAY_VALUE
COC1=CC(=O)c2ccccc2C1=O | 0.993
O=c1c(O)c(-c2ccccc2)oc2cc(O)cc(O)c12 | 1
CC1(C)OC(=O)C=C[C@]2(C)[C@H]3CC[C@@]4(C)[C@H](c5ccoc5)OC(=O)[C@H]5O[C@]54[C@]3(C)C(=O)C[C@@H]12 | 1.06
Cc1cc(NC(=O)c2cccc(NC(=O)/C=C/CN(C)C)c2)ccc1Nc1nccc(-c2cccnc2)n1 | 0.972
CC1=C[C@]2(O)O[C@@]3(CC2=C(C)C)[C@@H](C)CC[C@@H]13 | 1.06
CC(C)(O)[C@@H]1CC[C@](C)([C@H]2[C@@H](O)C[C@@]3(C)[C@@H]4C[C@H](O)[C@H]5C(C)(C)[C@@H](O[C@@H]6OC[C@@H](O)[C@H](O)[C@H]6O[C@@H]6O[C@H](CO)[C@@H](O)[C@H](O)[C@H]6O)CC[C@@]56C[C@@]46CC[C@]23C)O1 [Astragaloside III] | 1.01
COc1ccc(C2CC(=O)c3c(O)cc(OC4OC(COC5OC(C)C(O)C(O)C5O)C(O)C(O)C4O)cc3O2)cc1OC (stereo unspecified) | 0.942
Cc1c(C)c2c(c(C)c1O)CCC(C)(C(=O)O)O2 (stereo unspecified) | 1.02
C[C@H](CCC(=O)NCCS(=O)(=O)O)[C@H]1CC[C@H]2[C@@H]3[C@@H](O)C[C@@H]4C[C@H](O)CC[C@]4(C)[C@H]3CC[C@]12C | 0.892
CN(C)C[C@@H]1CCn2cc(c3ccccc32)C2=C(C(=O)NC2=O)c2cn(c3ccccc23)CCO1 [Ruboxistaurin hydrochloride] | 0.991
Oc1ccc(OCc2ccccc2)cc1 | 0.955
NNC(=O)c1ccncc1 | 0.967
CC(C)=CCC[C@](C)(O[C@@H]1O[C@H](CO)[C@@H](O)[C@H](O)[C@H]1O)[C@H]1CC[C@]2(C)[C@@H]1[C@H](O)C[C@@H]1[C@@]3(C)CC[C@H](O)C(C)(C)[C@@H]3[C@@H](O[C@@H]3O[C@H](CO)[C@@H](O)[C@H](O)[C@H]3O[C@@H]3OC[C@@H](O)[C@H](O)[C@H]3O)C[C@]12C [Notoginsenoside R1] | 1
CN1CCN(c2nc(C3=C(c4c[nH]c5ccccc45)C(=O)NC3=O)c3ccccc3n2)CC1 | 1.13
N=C(NCCCCCCNC(=N)NC(=N)Nc1ccc(Cl)cc1)NC(=N)Nc1ccc(Cl)cc1 [Chlorhexidine] | 1.05
OC[C@H]1O[C@@H](Oc2ccc(O)cc2)[C@H](O)[C@@H](O)[C@@H]1O | 1.01
